Origin of values: ChEMBL document CHEMBL1201862

GI50 by entry:
Tested on: SW-620
Assay: NCI tumour cell line growth inhibition, 48 h
Active and inactive are the calls of the source. Rule as the data show it: active = GI50 up to about 1.1 µM and inactive = higher.

Here is how some molecules turned out for GI50.
Molecule: O=C(CC(=O)c1ccncc1)c1ccccc1
Obs Value: 73.1 µM (inactive)
--
Molecule: COc1cc(/C=C2\C(=O)N(c3cccc(Cl)c3)C(c3ccccc3)S2(=O)=O)cc(OC)c1OC (stereo not given)
Obs Value: 59.7 µM (inactive)
--
Molecule: CCCCCCCCC[C@@H]1C[C@@H]2CCC3C(C(=O)OCCCCNC(=O)OCc4ccccc4)=C(C)N=C(N1)N32 (stereo not given in full)
Obs Value: 3.45 µM (inactive)
--
Molecule: Cc1ccc(-c2c(C#N)c(-c3ccccc3)n(NS(=O)(=O)c3ccccc3)c(=O)c2C#N)cc1
Obs Value: 86.3 µM (inactive)
--
Molecule: CCCCCCn1c(SCC)c2ccccc2c1-c1nc(F)nc(F)n1
Obs Value: > 100 µM (inactive)

Entry C[C@@H](c1ccccc1)N1CN(C(=O)OCc2ccccc2)C(C)(C)CC1=O : reported GI50 = ?
> 100 µM (inactive)

Entry Cn1c(=O)nc2n(CCO)c(-c3ccccc3)c(-c3ccccc3)nc-2c1=O : reported GI50 = ?
> 100 µM (inactive)

Entry COc1ccc(C(Cc2cc(OC)c(OC)c(OC)c2)C(=O)O)cc1 (stereo not given) : reported GI50 = ?
46.9 µM (inactive)

Entry c1cncc(CC2(c3cc4ccccc4[nH]3)OCCO2)c1 : reported GI50 = ?
> 100 µM (inactive)

Entry COc1cc(O)c(/C=N/N=C(\N)NO)c(OC)c1 : reported GI50 = ?
> 10 µM (inactive)

###

Tested on: Malme-3M
Test: NCI tumour cell line growth inhibition, 48 h
Calls of active or inactive are those of the source. Cut-off read from the data, not from the text of the source: active = GI50 up to about 1.1 µM and inactive = higher.
Measured Metric: GI50

Here is how some molecules turned out for GI50.
Molecule: CCOC(=O)C(CCCNC(=O)OC(C)(C)C)N(Cc1ccc(OC)cc1OC)C(=O)CC(=O)CP(=O)(OCC)OCC (configuration not stated)
Study System: Malme-3M
GI50: > 100 µM (inactive)
//
Molecule: C(/C=N/N=C1NCCN1)=N\N=C1NCCN1
Study System: Malme-3M
GI50: > 100 µM (inactive)
//
Molecule: CC(=O)O[C@H]1C[C@H](O[C@H]2[C@@H](O)C[C@H](O[C@H]3[C@@H](O)C[C@H](O[C@H]4CC[C@@]5(C)[C@H](CC[C@@H]6[C@@H]5C[C@@H](O)[C@]5(C)[C@@H](C7=CC(=O)OC7)CC[C@]65O)C4)O[C@@H]3C)O[C@@H]2C)O[C@H](C)[C@H]1O[C@@H]1O[C@H](CO)[C@@H](O)[C@H](O)[C@H]1O [LANATOSIDE C]
Study System: Malme-3M
GI50: 0.0678 µM (active)
//
Molecule: Nc1ncnc2c1ncn2CCCC(c1ccccc1)P(=O)(O)O (configuration not stated)
Study System: Malme-3M
GI50: > 100 µM (inactive)
//
Molecule: COCC1N=C(c2cc(OC)c(OC)c(OC)c2-c2cc3c(cc2C2OCCCO2)OCO3)O[C@H]1c1ccccc1 (some centres not stated)
Study System: Malme-3M
GI50: > 100 µM (inactive)
//
Molecule: CCOC(=O)[C@@H]1[C@@H]2NC(=O)N[C@@]1(C)Oc1ccccc12
Study System: Malme-3M
GI50: > 100 µM (inactive)

Entry CCOC(=O)CCC(C(=O)OCC)n1nc2ccc(Nc3c(C)[n+]([O-])c4cc(Cl)ccc4[n+]3[O-])cc2n1 (configuration not stated) : reported GI50 = ?
> 100 µM (inactive)

###

GI50 by entry:
System: SK-OV-3
Test: NCI tumour cell line growth inhibition, 48 h
Activity calls are given as the source filed them. No stated cut-off is given here; in the data, active = GI50 up to about 1.1 µM and inactive = higher.

Compound: CC1(C)CC[C@]2(C(=O)O)CCC3(C)C(=CCC4[C@@]5(C)CC[C@H](OC6OCC(O)C(O)C6OC6OC(CO)C(O)C(O)C6O)C(C)(C)C5CC[C@]43C)C2C1 (some centres not stated)
GI50: 2.22 µM (inactive)

Compound: O=C(NCCN1CCCCC1)c1cccc(I)c1
GI50: > 100 µM (inactive)

Compound: CC1(C)CC(=O)C2=C(C1)OC1=C(CC(C)(C)CC1=O)C2c1ccccc1[N+](=O)[O-] (configuration not stated)
GI50: > 100 µM (inactive)

Compound: C=CCSC1=N/C(=C\c2ccco2)C(=O)N1CC=C
GI50: > 100 µM (inactive)

Compound: CCCCCCCCCCCCCC(=O)NCC(OCC)OCC
GI50: > 100 µM (inactive)

Value wanted: GI50 (SK-OV-3) of entry O=C(O)Cc1cc(F)ccc1C(=O)O
> 100 µM (inactive)

Value wanted: GI50 (SK-OV-3) of entry COc1ccc2c(c1)c1ccc3c(c1n2C)C(=O)C=CC3=O
29.2 µM (inactive)

Value wanted: GI50 (SK-OV-3) of entry CC(C)CCNC(=O)c1ccc(CNC(=O)/C=C/c2ccc3c(c2)-c2ccccc2C3)cc1
57.1 µM (inactive)

Value wanted: GI50 (SK-OV-3) of entry CC(=O)OCCn1c(Cc2ccc(C)cc2)nn(C(C)=O)c1=O
> 100 µM (inactive)

Value wanted: GI50 (SK-OV-3) of entry N#CCc1n[nH]c2nc(SCc3ccccc3)nc(N3CCCCC3)c12
26.4 µM (inactive)

Value wanted: GI50 (SK-OV-3) of entry O=c1cc(N2CCCC2)[nH]c(=O)n1-c1ccc(F)cc1
> 100 µM (inactive)

Value wanted: GI50 (SK-OV-3) of entry COC[C@@H](/N=C/C(C)(C)C)C(C)C
> 100 µM (inactive)

###

System: SK-MEL-2
Test: NCI tumour cell line growth inhibition, 48 h
Activity calls are given as the source filed them. No stated cut-off is given here; in the data, active = GI50 up to about 1.1 µM and inactive = higher.
Measured Metric: GI50

Here is how some compounds turned out for GI50.
Compound: COC(=O)C(c1ccc(OC)cc1)N1C(=O)[C@@H](NC(=O)c2ccccc2)[C@H]1[C@@H](C)O (some centres undefined)
Obs Value: > 100 µM (inactive)

Compound: Cc1ncc([N+](=O)[O-])n1CCNC(=O)CCCn1ccnc1[N+](=O)[O-]
Obs Value: > 100 µM (inactive)

Compound: O=C(OCC(Cl)(Cl)Cl)N1CC[C@H](C2CCCCC2)C1
Obs Value: 15.8 µM (inactive)

Compound: CCOC(=O)c1ccc(NC2Oc3cc4c(cc3C(c3cc(OC)c(OC)c(OC)c3)C2C)OCO4)cc1 (centres undefined)
Obs Value: 0.675 µM (active)

Compound: COc1ccc(Cc2nc3cc(C(F)(F)F)ccc3n2C[C@@H]2CCCN3CCCCC23)cc1 (some centres undefined)
Obs Value: 15.6 µM (inactive)

Compound: CN(C)/C=N/Cc1ccc2c(c1)OCO2
Obs Value: > 100 µM (inactive)

Compound: Cc1ccc(Cl)c2c1NC(=O)/C2=N\Nc1ccccc1[N+](=O)[O-]
Obs Value: > 100 µM (inactive)

Compound: O=S(=O)(O)c1ccc(/N=N/c2ccccc2)cc1
Obs Value: > 100 µM (inactive)

Compound: CCCCCC(/C=C/C1CCC(=O)C1CC#C[Si](C)(C)C)OCc1ccccc1 (centres undefined)
Obs Value: 15.5 µM (inactive)

Compound: N#CC12CC3=C(N=C1NC1=C(CCc4ccccc41)C2)c1ccccc1CC3 (centres undefined)
Obs Value: 4.39 µM (inactive)

Entry COc1cc2c(cc1OC)C13CCN4C=C5CCOC6CC(=O)N2C1C6C5CC43 (centres undefined) : reported GI50 = ?
> 100 µM (inactive)

Entry O=C(NN1C(=O)CS(=O)(=O)C1c1ccc(Cl)c(Cl)c1)c1ccncc1 (centres undefined) : reported GI50 = ?
> 100 µM (inactive)

Entry COc1cc2noc(-c3ccccc3)c2cc1OC : reported GI50 = ?
75.9 µM (inactive)

Entry CCOC(=O)C(C(=O)OCC)=c1sc(=C(C(=O)OCC)C(=O)OCC)s1 : reported GI50 = ?
> 100 µM (inactive)

Entry CC(Nc1cc(=O)n(C)c(=O)[nH]1)c1ccccc1 (centres undefined) : reported GI50 = ?
> 100 µM (inactive)

Entry CC(C)(C)NC1C2CCC(C)(C1O)C2(C)C (centres undefined) : reported GI50 = ?
> 100 µM (inactive)

Entry CN1C/C(=C\c2cccs2)C2=NN(C)C(c3cccs3)C2C1 (centres undefined) : reported GI50 = ?
24 µM (inactive)

###

Test system: M14
Experiment: NCI tumour cell line growth inhibition, 48 h
The source made the active and inactive calls. Cut-off read from the data, not from the text of the source: active = GI50 up to about 1.1 µM and inactive = higher.
Bench note: report the call from active, inactive

Sample answers from the record:
Molecule: NC(=S)N1N=C(c2ccccc2O)CC1c1ccccc1 (stereo not drawn)
Class: inactive

Molecule: ClCCCC1COc2ccccc2O1 (stereo not drawn)
Class: inactive

Molecule: COc1ccccc1NC(=O)C(CC(C(=O)Nc1ccccc1OC)/C(C)=N/NC(=O)c1ccccc1O)/C(C)=N/NC(=O)c1ccccc1O (stereo not drawn)
Class: inactive

Molecule: CCCCCCCCCCCCC(SCCNC(=O)CCNC(=O)C(O)C(C)(C)COP(=O)(O)OP(=O)(O)OCC1OC(n2cnc3c(N)ncnc32)C(O)C1OP(=O)(O)O)C(=O)NCC(N)=O (stereo not drawn)
Class: inactive

Molecule: COC(=O)c1c(C)cccc1C1CN=NC12Cc1c(C)cccc1C2=O (stereo not drawn)
Class: inactive

Dear all, I need the recorded test outcome for COc1cc(O)c(/C=N/N=C(\N)NO)c(OC)c1 , thank you.
inactive

Dear all, I need the recorded test outcome for C=CCSC1=N/C(=C\c2ccco2)C(=O)N1CC=C , thank you.
inactive

Dear all, I need the recorded test outcome for O=C(CSCC(=O)N/N=C\c1cc(Cl)cc(Cl)c1O)N/N=C\c1cc(Cl)cc(Cl)c1O , thank you.
inactive

Dear all, I need the recorded test outcome for COC(=O)C(Cc1c[nH]c2ccccc12)NP(=O)(O)OCC1OC(n2ccc(N)nc2=O)C(O)C1O (stereo not drawn) , thank you.
inactive

Dear all, I need the recorded test outcome for O=C(O)C#CCO , thank you.
inactive

Dear all, I need the recorded test outcome for COC(=O)C1=C(c2cc(OC)c(OC)c(OC)c2)O[C@H](c2ccc3c(c2)OCO3)[C@H]1COC(C)=O , thank you.
inactive
